biological target: BMP-2-inducible protein kinase (Homo sapiens); also: in the data inactive means no Kd found up to 30 µM
Sequence (Q9NSY1 whole entry): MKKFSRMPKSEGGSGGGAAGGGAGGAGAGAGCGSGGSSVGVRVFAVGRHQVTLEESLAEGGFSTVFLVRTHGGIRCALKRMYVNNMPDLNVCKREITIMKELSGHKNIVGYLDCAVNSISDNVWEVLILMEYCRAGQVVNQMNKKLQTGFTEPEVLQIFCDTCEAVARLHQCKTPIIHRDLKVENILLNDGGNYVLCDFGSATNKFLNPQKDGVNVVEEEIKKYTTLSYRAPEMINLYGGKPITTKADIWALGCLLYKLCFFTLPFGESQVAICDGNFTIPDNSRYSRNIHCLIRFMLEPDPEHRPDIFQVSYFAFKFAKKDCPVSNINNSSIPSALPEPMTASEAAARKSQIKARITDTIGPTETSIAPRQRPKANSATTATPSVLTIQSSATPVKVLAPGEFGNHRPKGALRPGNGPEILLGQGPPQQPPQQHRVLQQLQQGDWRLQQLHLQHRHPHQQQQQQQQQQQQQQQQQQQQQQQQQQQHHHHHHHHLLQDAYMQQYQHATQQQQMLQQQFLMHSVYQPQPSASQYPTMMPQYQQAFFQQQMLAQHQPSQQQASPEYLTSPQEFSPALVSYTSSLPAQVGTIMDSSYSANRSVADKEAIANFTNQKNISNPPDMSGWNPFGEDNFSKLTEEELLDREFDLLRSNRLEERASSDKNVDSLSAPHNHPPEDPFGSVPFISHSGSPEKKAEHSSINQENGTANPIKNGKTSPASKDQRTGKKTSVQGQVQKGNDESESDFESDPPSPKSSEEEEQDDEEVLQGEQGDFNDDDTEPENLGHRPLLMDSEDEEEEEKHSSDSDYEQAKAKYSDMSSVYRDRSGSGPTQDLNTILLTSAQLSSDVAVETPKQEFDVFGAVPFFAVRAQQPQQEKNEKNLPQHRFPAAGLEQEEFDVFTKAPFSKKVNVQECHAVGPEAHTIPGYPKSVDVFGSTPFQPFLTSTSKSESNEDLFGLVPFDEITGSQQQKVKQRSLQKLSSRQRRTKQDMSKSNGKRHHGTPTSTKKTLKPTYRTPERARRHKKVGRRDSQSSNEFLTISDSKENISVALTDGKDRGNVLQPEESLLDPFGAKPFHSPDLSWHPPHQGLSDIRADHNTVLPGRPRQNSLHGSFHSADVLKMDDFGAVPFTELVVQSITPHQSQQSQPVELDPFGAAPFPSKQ
Active and inactive are the calls of the source.
Classes used: class 1 = active, class 0 = inactive

{"Compound": "C[C@@H]1COC(Nc2ccc3ncnc(Nc4ccc(OCc5nccs5)c(Cl)c4)c3c2)=N1", "Class assignment": "class 0"}
{"Compound": "CNC(=O)c1ccc(Nc2ncc(C(F)(F)F)c(NCc3nccnc3N(C)S(C)(=O)=O)n2)cc1", "Class assignment": "class 0"}
{"Compound": "COc1cc2ncnc3c2cc1OCCCCCN(C)Cc1ccc(Br)cc1N3", "Class assignment": "class 0"}
{"Compound": "Cn1cc(-c2[nH]c3cc(NC(=O)[C@H](N)C4CCCCC4)cc4c3c2C=NNC4=O)cn1", "Class assignment": "class 1"}
{"Compound": "CN1CCN(c2nc(C3=C(c4c[nH]c5ccccc45)C(=O)NC3=O)c3ccccc3n2)CC1", "Class assignment": "class 0"}
{"Compound": "COc1cccc(Nc2ncnn3ccc(CN4CC[C@@H](N)[C@H](O)C4)c23)c1", "Class assignment": "class 1"}
{"Compound": "O=C(O)c1ccc2c(c1)nc(Nc1cccc(Cl)c1)c1ccncc12", "Class assignment": "class 0"}
{"Compound": "CC1(COc2ccc3c(c2)ncn3-c2ccc3cccc(N4CCC(N)CC4)c3n2)COC1", "Class assignment": "class 1"}
{"Compound": "O=S(=O)(c1cccc2c(O)nccc12)N1CCCNCC1 [HYDROXYFASUDIL]", "Class assignment": "class 0"}
{"Compound": "CCc1cc2c(cc1N1CCC(N3CCOCC3)CC1)C(C)(C)c1[nH]c3cc(C#N)ccc3c1C2=O", "Class assignment": "class 0"}
{"Compound": "Cc1ccc(C(=O)Nc2ccc(Oc3cc4cnn(C)c4cc3-c3cn[nH]c3)c(F)c2)c(=O)n1-c1ccc(F)cc1", "Class assignment": "class 0"}
{"Compound": "C=CCn1c(=O)c2cnc(Nc3ccc(N4CCN(C)CC4)cc3)nc2n1-c1cccc(C(C)(C)O)n1", "Class assignment": "class 0"}
{"Compound": "COc1ccc2c(OCc3nnc4ccc(-c5ccccc5)nn34)ccnc2c1", "Class assignment": "class 0"}
{"Compound": "Cn1c(=O)n(-c2ccc(C(C)(C)C#N)cc2)c2c3cc(-c4cnc5ccccc5c4)ccc3ncc21", "Class assignment": "class 0"}
{"Compound": "CC(C)(O)CC(=O)NCCn1ccc2ncnc(Nc3ccc(Oc4cccc(C(F)(F)F)c4)c(Cl)c3)c21", "Class assignment": "class 0"}
{"Compound": "c1cc(OCCN2CCCCC2)cc(-c2n[nH]c3ccc(-c4nc[nH]n4)cc23)c1", "Class assignment": "class 1"}
{"Compound": "S=C(NCc1ccc2c(c1)OCO2)N1CCN(c2ncnc3c2oc2ccccc23)CC1", "Class assignment": "class 0"}

====

target: Serine/threonine-protein kinase Chk1 (Homo sapiens, UniProt O14757); also: in the data inactive means no Kd found up to 30 µM
Sequence (O14757 whole entry): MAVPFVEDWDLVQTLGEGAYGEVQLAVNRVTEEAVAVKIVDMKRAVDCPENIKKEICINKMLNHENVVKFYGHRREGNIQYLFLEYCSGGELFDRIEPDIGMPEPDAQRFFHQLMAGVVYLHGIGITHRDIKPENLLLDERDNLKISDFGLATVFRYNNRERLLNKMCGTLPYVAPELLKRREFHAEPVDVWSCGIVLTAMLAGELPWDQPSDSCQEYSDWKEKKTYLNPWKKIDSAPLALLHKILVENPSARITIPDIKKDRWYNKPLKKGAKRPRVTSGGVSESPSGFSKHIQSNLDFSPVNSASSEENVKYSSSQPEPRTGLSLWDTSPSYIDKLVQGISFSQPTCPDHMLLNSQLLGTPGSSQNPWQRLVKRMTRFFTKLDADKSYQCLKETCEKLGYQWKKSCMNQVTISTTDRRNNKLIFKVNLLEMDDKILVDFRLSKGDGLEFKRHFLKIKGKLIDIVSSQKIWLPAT
Active and inactive are the calls of the source.
Outcomes: active, inactive

{"Molecule": "c1cc(OCCN2CCCCC2)cc(-c2n[nH]c3ccc(-c4nc[nH]n4)cc23)c1 [CC-401]", "System name": "Serine/threonine-protein kinase Chk1 (Homo sapiens, UniProt O14757)", "Class assignment": "inactive"}
{"Molecule": "C=CCN(/C=C1/C(=O)O[C@H](COC)[C@@]2(C)C1=C(O)C(=O)C1=C2[C@H](OC(C)=O)C[C@]2(C)C(=O)CC[C@@H]12)CC=C [SONOLISIB]", "System name": "Serine/threonine-protein kinase Chk1 (Homo sapiens, UniProt O14757)", "Class assignment": "inactive"}
{"Molecule": "C=CC(=O)Nc1cc(Nc2nccc(-c3cn(C)c4ccccc34)n2)c(OC)cc1N(C)CCN(C)C [OSIMERTINIB]", "System name": "Serine/threonine-protein kinase Chk1 (Homo sapiens, UniProt O14757)", "Class assignment": "inactive"}
{"Molecule": "C#Cc1cccc(Nc2ncnc3cc4c(cc23)OCCOCCOCCO4)c1 [ICOTINIB]", "System name": "Serine/threonine-protein kinase Chk1 (Homo sapiens, UniProt O14757)", "Class assignment": "inactive"}
{"Molecule": "COc1cccc(Nc2ncnn3ccc(CN4CC[C@@H](N)[C@H](O)C4)c23)c1 [BMS-690514]", "System name": "Serine/threonine-protein kinase Chk1 (Homo sapiens, UniProt O14757)", "Class assignment": "active"}
{"Molecule": "Cc1cc(-c2cc(OC(=O)c3ccccc3)ccc2Cl)cc2nnc(Nc3ccc(OCCN4CCCC4)cc3)nc12 [TG100-801]", "System name": "Serine/threonine-protein kinase Chk1 (Homo sapiens, UniProt O14757)", "Class assignment": "inactive"}
{"Molecule": "COc1ccc2c(OCc3nnc4ccc(-c5ccccc5)nn34)ccnc2c1 [AMG-208]", "System name": "Serine/threonine-protein kinase Chk1 (Homo sapiens, UniProt O14757)", "Class assignment": "inactive"}
{"Molecule": "CCN1CCN(Cc2ccc(Nc3ncc(F)c(-c4cc(F)c5nc(C)n(C(C)C)c5c4)n3)nc2)CC1 [ABEMACICLIB]", "System name": "Serine/threonine-protein kinase Chk1 (Homo sapiens, UniProt O14757)", "Class assignment": "inactive"}

====

molecular target: Cyclin-dependent kinase 7 (Homo sapiens); also: in the data inactive means no Kd found up to 30 µM
Sequence (P50613 whole entry): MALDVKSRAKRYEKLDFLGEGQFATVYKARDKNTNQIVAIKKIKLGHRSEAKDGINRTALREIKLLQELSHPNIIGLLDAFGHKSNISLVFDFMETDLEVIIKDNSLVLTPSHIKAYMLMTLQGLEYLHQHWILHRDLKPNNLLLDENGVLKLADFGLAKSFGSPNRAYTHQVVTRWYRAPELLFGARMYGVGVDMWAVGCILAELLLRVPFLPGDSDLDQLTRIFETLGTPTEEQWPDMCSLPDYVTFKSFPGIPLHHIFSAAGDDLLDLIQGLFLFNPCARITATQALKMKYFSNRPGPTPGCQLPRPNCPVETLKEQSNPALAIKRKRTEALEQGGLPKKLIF
Active and inactive are the calls of the source.
Labels: active, inactive

{"Compound": "Cc1cc(C(=O)Nc2cc(Oc3ccc4nc(NC(=O)C5CC5)cn4n3)ccc2C)n(C)n1 [TAK-593]", "System name": "Cyclin-dependent kinase 7 (Homo sapiens)", "Class assignment": "inactive"}
{"Compound": "O=C(NOC[C@H](O)CO)c1ccc(F)c(F)c1Nc1ccc(I)cc1F [MIRDAMETINIB]", "System name": "Cyclin-dependent kinase 7 (Homo sapiens)", "Class assignment": "inactive"}
{"Compound": "CCOc1ccn(-c2ccc(F)cc2)c(=O)c1C(=O)Nc1ccc(Oc2ccnc(N)c2Cl)c(F)c1 [BMS-777607]", "System name": "Cyclin-dependent kinase 7 (Homo sapiens)", "Class assignment": "inactive"}
{"Compound": "CCc1cc2c(cc1N1CCC(N3CCOCC3)CC1)C(C)(C)c1[nH]c3cc(C#N)ccc3c1C2=O [ALECTINIB]", "System name": "Cyclin-dependent kinase 7 (Homo sapiens)", "Class assignment": "inactive"}
{"Compound": "COc1cc2nccc(Oc3ccc(NC(=O)C4(C(=O)Nc5ccc(F)cc5)CC4)cc3)c2cc1OC [CABOZANTINIB]", "System name": "Cyclin-dependent kinase 7 (Homo sapiens)", "Class assignment": "inactive"}
{"Compound": "COc1cc2ncnc(Nc3ccc(O)cc3)c2cc1OC [WHI-P131]", "System name": "Cyclin-dependent kinase 7 (Homo sapiens)", "Class assignment": "inactive"}
{"Compound": "Cn1cc(-c2[nH]c3cc(NC(=O)[C@H](N)C4CCCCC4)cc4c3c2C=NNC4=O)cn1", "System name": "Cyclin-dependent kinase 7 (Homo sapiens)", "Class assignment": "inactive"}
{"Compound": "Cc1c(Cn2c(C)nc3c(C(=O)O)cc(N4CCOCC4)cc32)cccc1C(F)(F)F [GSK-2636771]", "System name": "Cyclin-dependent kinase 7 (Homo sapiens)", "Class assignment": "inactive"}
{"Compound": "C#Cc1cccc(Nc2ncnc3cc4c(cc23)OCCOCCOCCO4)c1 [ICOTINIB]", "System name": "Cyclin-dependent kinase 7 (Homo sapiens)", "Class assignment": "inactive"}
{"Compound": "COc1cc(F)c(F)c(Nc2ccc(I)cc2F)c1NS(=O)(=O)C1(C[C@H](O)CO)CC1 [REFAMETINIB]", "System name": "Cyclin-dependent kinase 7 (Homo sapiens)", "Class assignment": "inactive"}
{"Compound": "O=C(O)c1ccc2c(c1)nc(Nc1cccc(Cl)c1)c1ccncc12 [SILMITASERTIB]", "System name": "Cyclin-dependent kinase 7 (Homo sapiens)", "Class assignment": "active"}
{"Compound": "Cc1c(NC(=O)OC[C@@H]2COCCN2)cn2ncnc(Nc3ccc4c(cnn4Cc4cccc(F)c4)c3)c12 [AC-480]", "System name": "Cyclin-dependent kinase 7 (Homo sapiens)", "Class assignment": "inactive"}
{"Compound": "O=C(Nc1ccc(OC(F)(F)F)cc1)c1sccc1NCc1ccnc2ccccc12 [OSI-930]", "System name": "Cyclin-dependent kinase 7 (Homo sapiens)", "Class assignment": "inactive"}
{"Compound": "COc1ccc2c(OCc3nnc4ccc(-c5ccccc5)nn34)ccnc2c1 [AMG-208]", "System name": "Cyclin-dependent kinase 7 (Homo sapiens)", "Class assignment": "inactive"}
{"Compound": "CCc1nc(C(N)=O)c(Nc2ccc(N3CCC(N4CCN(C)CC4)CC3)c(OC)c2)nc1NC1CCOCC1 [GILTERITINIB]", "System name": "Cyclin-dependent kinase 7 (Homo sapiens)", "Class assignment": "inactive"}
{"Compound": "C[C@@H]1COC(Nc2ccc3ncnc(Nc4ccc(OCc5nccs5)c(Cl)c4)c3c2)=N1 [VARLITINIB]", "System name": "Cyclin-dependent kinase 7 (Homo sapiens)", "Class assignment": "inactive"}
{"Compound": "COCCN1CCN(Cc2ccc(-c3n[nH]c4c3C(=O)c3c(NC(=O)NN5CCOCC5)cccc3-4)cc2)CC1 [RGB-286638]", "System name": "Cyclin-dependent kinase 7 (Homo sapiens)", "Class assignment": "active"}
